system: HEK-293T; assay: Multiplex assay against HEK293T; type: toxicity, cell-based; details: human, 24 h, 1 µM, compound concentration 1 uM, replicate 1
MEASUREMENT KIND: Population Pyknosed Nuclei (%)
Enter your answer as a number in %; do not include the unit.

# count of solved cases: 3
| COMPOUND | MEASUREMENT KIND | UNITS OF MEASURE | VALUE REPORTED |
| --- | --- | --- | --- |
| C=CC(=O)Nc1cc2c(Nc3ccc(F)c(Cl)c3)ncnc2cc1OCCCN1CCOCC1.Cl.Cl [CANERTINIB DIHYDROCHLORIDE] | Population Pyknosed Nuclei (%) | % | 40 |
| COc1ncc(-c2ccc3nccc(-c4ccnnc4)c3c2)cc1NS(=O)(=O)c1ccc(F)cc1F | Population Pyknosed Nuclei (%) | % | 71 |
| Cc1csc2c(N[C@@H](C)CN3CCN(S(=O)(=O)c4ccc(Cl)c(Cl)c4)CC3)ncnc12 | Population Pyknosed Nuclei (%) | % | 62 |

Fill in: Population Pyknosed Nuclei (%) of CN(C)C(=O)/C(C#N)=C/c1ccc(-c2nc3cnc4[nH]ccc4c3n2C2CCCCC2)o1 is ___
44

Record: Cc1nc(Nc2n[nH]c3c2CN(C(=O)N[C@H](CN(C)C)c2ccccc2)C3(C)C)c2sccc2n1
13

How about COc1cc(-n2cnc3cc(-c4ccc(Cl)cc4)sc3c2=O)ccc1OCCN1CCCC1 ?
50

Moving on to C[C@@]1(C(=O)Nc2ccc(F)nc2)CCCN1c1nc(Nc2cc(C3CC3)n[nH]2)c2cccn2n1
25

Same again, this time with C=CC(=O)Nc1cccc(C(=O)Nc2ccc(Nc3cc(-c4[nH]c(SC)nc4C)ccn3)cc2)c1
49

====

test system: Fibroblast; assay: Multiplex assay against human fibroblast; type: toxicity, cell-based; details: 24 h, 10 µM, compound concentration 10 uM, replicate 1
MEASUREMENT KIND: Population Healthy Nuclei (%)

| COMPOUND | Population Healthy Nuclei (%) |
| --- | --- |
| CN(C)C(=O)/C(C#N)=C/c1ccc(-c2nc3cnc4[nH]ccc4c3n2C2CCCCC2)o1 | 25% |

What value of measured Population Healthy Nuclei (%) is listed for CN1CCN(c2ccc(OC(F)(F)F)c(Nc3ncc4c(n3)-c3c(c(C(N)=O)nn3CCO)CC4)c2)CC1 ?
37%

O=C(NCCCC1CCCCC1)c1ccc(CNC(=O)c2cnn(-c3ccccc3)c2C(F)(F)F)cc1 , same question.
42% [middle of 4 runs]

Entry CC(C)(O)CNc1ncc(-c2ccnc(Nc3ccnc(Cl)c3)n2)c(CC2CC2)n1 please
32%

Same thing, different compound: Cc1cc(C)cc(-c2cnc3cc(Cl)c(-c4cccc(O)c4)cc3c2OCCCN)c1
16%

Subsequent entry: C=CC(=O)Nc1cc2c(Nc3ccc(F)c(Cl)c3)ncnc2cc1OCCCN1CCOCC1.Cl.Cl [CANERTINIB DIHYDROCHLORIDE]
50%

Entry to check: O=C1NCN(c2ccccc2)C12CCN(CCCOc1ccc(F)cc1)CC2 [SPIRAMIDE]
60%

Do the same for Cc1c(-c2ccc(O)cc2)n(Cc2ccc(OCCN3CCCCCC3)cc2)c2ccc(O)cc12 please
37%

How about CC(C)NCC(O)COc1ccc(CCOCC2CC2)cc1.Cl (stereo not drawn) [BETAXOLOL HYDROCHLORIDE] ?
50%

Same read-out for CN1CCC[C@@H]1CCO[C@](C)(c1ccccc1)c1ccc(Cl)cc1.O=C(O)/C=C/C(=O)O [CLEMASTINE FUMARATE] ?
48%

Here is the next compound: Cc1nc(Nc2n[nH]c3c2CN(C(=O)N[C@H](CN(C)C)c2ccccc2)C3(C)C)c2sccc2n1
54%

Here is the next compound: Cc1nc(-c2cn3c(n2)-c2ccc(-c4cnn(C(C)(C)C(N)=O)c4)cc2OCC3)n(C(C)C)n1
67%

What about OC1(c2ccc(Cl)cc2)CCN(Cc2c[nH]c3ccccc23)CC1 ?
50%

Okay, and Cl.N#Cc1ccc2[nH]cc(CCCCN3CCN(c4ccc5oc(C(N)=O)cc5c4)CC3)c2c1 [VILAZODONE HYDROCHLORIDE] ?
23%

Next compound up: COc1ncc(-c2ccc3nccc(-c4ccnnc4)c3c2)cc1NS(=O)(=O)c1ccc(F)cc1F
49%

====

system: HEK-293T; assay: Multiplex assay against HEK293T; type: toxicity, cell-based; details: human, 24 h, 1 µM, compound concentration 1 uM, replicate 2
Catalogue of Population Mitochondria Different-Phenotype (%) values
The answer is to be given in %; state only the numeric part.

| COMPOUND | ASSAYED TARGET | UNITS OF MEASURE | VALUE REPORTED |
| --- | --- | --- | --- |
| C=CC(=O)Nc1cccc(C(=O)Nc2ccc(Nc3cc(-c4[nH]c(SC)nc4C)ccn3)cc2)c1 | HEK-293T | % | 16 |
| COc1cccc([C@@H](C)NCCCc2ccccc2Cl)c1.Cl [TECALCET HYDROCHLORIDE] | HEK-293T | % | 25 |
| OC1(c2ccc(Cl)cc2)CCN(Cc2c[nH]c3ccccc23)CC1 | HEK-293T | % | 30 |
| CN(C)C(=O)/C(C#N)=C/c1ccc(-c2nc3cnc4[nH]ccc4c3n2C2CCCCC2)o1 | HEK-293T | % | 23 |

Now turn to the next compound.
Any idea what Population Mitochondria Different-Phenotype (%) was measured for CN(C)CC#Cc1ccc(OCCCc2sc(N3CCc4cccc(C(=O)Nc5nc6ccccc6s5)c4C3)nc2C(=O)O)c(F)c1 ?
7

====

tested on: Fibroblast; assay: Multiplex assay against human fibroblast; assay type: toxicity, cell-based; conditions: 12 h, 10 µM, compound concentration 10 uM, replicate 2
MEASUREMENT KIND: Population Apoptotic (%)
Report as a plain number; the unit % is understood.

The cases that follow already have their Population Apoptotic (%) on record.
| COMPOUND | Population Apoptotic (%) |
| --- | --- |
| CN1CCN(CCOc2cc(OC3CCOCC3)c3c(Nc4c(Cl)ccc5c4OCO5)ncnc3c2)CC1 | 75 |
| CC(C)(O)CNc1ncc(-c2ccnc(Nc3ccnc(Cl)c3)n2)c(CC2CC2)n1 | 15 |
| CN1CCCC(n2nc(Cc3ccc(Cl)cc3)c3ccccc3c2=O)CC1.Cl (configuration not stated) [AZELASTINE HYDROCHLORIDE] | 57 |
| Cc1[nH]c(/C=C2\C(=O)Nc3ccc(S(=O)(=O)N(C)c4cccc(Cl)c4)cc32)c(C)c1C(=O)N1CCN(C)CC1 | 25 |
| Cc1nc(-c2ccc(-c3ccc(C(=O)N4CCc5cc6c(cc54)C4(CCN(C)CC4)CO6)cc3)c(C)c2)no1 | 63 |
| OC1(c2ccc(Cl)cc2)CCN(Cc2c[nH]c3ccccc23)CC1 | 42 |
| CN(C)C(=O)/C(C#N)=C/c1ccc(-c2nc3cnc4[nH]ccc4c3n2C2CCCCC2)o1 | 18 |
| COc1cccc([C@@H](C)NCCCc2ccccc2Cl)c1.Cl [TECALCET HYDROCHLORIDE] | 41 |
| Cc1nc(-c2cn3c(n2)-c2ccc(-c4cnn(C(C)(C)C(N)=O)c4)cc2OCC3)n(C(C)C)n1 | 33 |
| CCN(CC)CCCCNc1ncc2cc(-c3cc(OC)cc(OC)c3)c(NC(=O)NC(C)(C)C)nc2n1 | 66 |

For CN(C)CC#Cc1ccc(OCCCc2sc(N3CCc4cccc(C(=O)Nc5nc6ccccc6s5)c4C3)nc2C(=O)O)c(F)c1 , what is its reported Population Apoptotic (%)?
86

Continue with CC(C)NCC(O)COc1ccc(CCOCC2CC2)cc1.Cl (configuration not stated) [BETAXOLOL HYDROCHLORIDE]
23

Next up: c1cn2cc(-c3ccc4cn[nH]c4c3)nc(Nc3ccc(N4CCOCC4)cc3)c2n1
92

Also need COc1cc(-n2cnc3cc(-c4ccc(Cl)cc4)sc3c2=O)ccc1OCCN1CCCC1 , thanks.
26

Likewise for C[C@@H](NCCCc1cccc(C(F)(F)F)c1)c1cccc2ccccc12.Cl [CINACALCET HYDROCHLORIDE] ?
88

Next: Cc1csc2c(N[C@@H](C)CN3CCN(S(=O)(=O)c4ccc(Cl)c(Cl)c4)CC3)ncnc12
75

Now the same for Cl.N#Cc1ccc2[nH]cc(CCCCN3CCN(c4ccc5oc(C(N)=O)cc5c4)CC3)c2c1 [VILAZODONE HYDROCHLORIDE]
67

====

test system: U2OS; experiment: Multiplex assay against U2OS; format: toxicity, cell-based; settings: human, 12 h, 1 µM, compound concentration 1 uM, replicate 1
The compounds listed here are annotated with their Population Tubulin-Different-Phenotype (%).
Please give a number only; it is taken to be in %.

| COMPOUND | ASSAYED TARGET | UNITS OF MEASURE | VALUE REPORTED |
| --- | --- | --- | --- |
| Cc1cc(C)cc(-c2cnc3cc(Cl)c(-c4cccc(O)c4)cc3c2OCCCN)c1 | U2OS | % | 88 |
| CN1CCCC(n2nc(Cc3ccc(Cl)cc3)c3ccccc3c2=O)CC1.Cl (centres undefined) [AZELASTINE HYDROCHLORIDE] | U2OS | % | 70 |
| CC(C)(O)CNc1ncc(-c2ccnc(Nc3ccnc(Cl)c3)n2)c(CC2CC2)n1 | U2OS | % | 19 |

# returns recorded Population Tubulin-Different-Phenotype (%) (system: U2OS) for C[C@@H](NCCCc1cccc(C(F)(F)F)c1)c1cccc2ccccc12.Cl [CINACALCET HYDROCHLORIDE]
40
